- Test system: Staphylococcus aureus
- Protocol Details: Effect on membrane integrity in Staphylococcus aureus SH1000 at four times MIC after 10 mins by BacLight assay
- Format: functional
Metric Name: Activity (%)

INSERT INTO results (smiles_data, units_of_measure, experimental_value) VALUES
  ('CCc1cccc2c1[nH]c1c(C)c3ccncc3c(C)c12', '%', 34.2),
  ('Cc1c2c[n+](C)ccc2c(C)c2c1c1cc(Br)ccc1n2C.[I-]', '%', 42.4),
  ('Cc1c2ccncc2c(C)c2c1[nH]c1ccc(Br)cc12', '%', 49.6),
  ('C=CCc1cc(Nc2c3ccc(Cl)cc3nc3ccc(OC)cc23)cc(CN(CC)CC)c1O', '%', 47.7),
  ('Cc1c2ccncc2c(C)c2c1[nH]c1ccc(O)cc12', '%', 71.9),
  ('Cc1c2cc[n+](C)cc2c(C)c2c1[nH]c1ccc(Br)cc12.[I-]', '%', 29.8),
  ('Cc1c2ccncc2c(C)c2c1[nH]c1cc(F)ccc12', '%', 42.8),
  ('COc1ccc2[nH]c3c(C)c4cc[n+](C)cc4c(C)c3c2c1.[I-]', '%', 16),
  ('COc1ccc2nc3cc(Cl)ccc3c(Nc3ccc(O)c(CN4CCN(C)CC4)c3)c2c1', '%', 48.7),
  ('Cc1c2cc[n+](C)cc2c(C)c2c1[nH]c1ccccc12.[I-]', '%', 37.3);

* * *

- Protocol Details: Inhibition of Escherichia coli DdlB assessed as residual activity of the enzyme assessed as orthophosphate formation after 20 mins by malachite green reagent method
pIC50: −log10 of the molar value.
// values below are reported pIC50
Metric Name: pIC50

INSERT INTO measurements (compound, metric_name, experimental_value) VALUES
  ('Cc1c2ccncc2c(C)c2c1[nH]c1ccc(O)cc12', 'pIC50', 3.72),
  ('COc1ccc2[nH]c3c(C)c4ccncc4c(C)c3c2c1', 'pIC50', 4.22),
  ('COc1ccc2c(c1)c1c(C)c3cnccc3c(C)c1n2C', 'pIC50', 3.74),
  ('Cc1c2cc[n+](C)cc2c(C)c2c1[nH]c1ccc(Br)cc12.[I-]', 'pIC50', 4.64),
  ('COc1ccc2[nH]c3c(C)c4cc[n+](C)cc4c(C)c3c2c1.[I-]', 'pIC50', 4.19),
  ('COc1ccc2nc3cc(Cl)ccc3c(Nc3ccc(O)c(CN4CCCC4)c3)c2c1', 'pIC50', 3.99),
  ('CCN(CC)Cc1cc(Nc2c3ccc(Cl)cc3nc3ccc(OC)cc23)ccc1O', 'pIC50', 3.49),
  ('COc1ccc2nc3cc(Cl)ccc3c(Nc3ccc(C(O)CCN(C)C)cc3)c2c1 (centres undefined)', 'pIC50', 3.87),
  ('Cc1c2cnccc2c(C)c2c1c1cc(Br)ccc1n2C', 'pIC50', 3.53),
  ('COc1cc(Nc2c3ccc(Cl)cc3nc3ccc(OC)cc23)c2ncccc2c1', 'pIC50', 4.49),
  ('COc1ccc2nc3cc(Cl)ccc3c(Nc3ccc(O)c(CN4CCN(C)CC4)c3)c2c1', 'pIC50', 3.79),
  ('C=CCc1cc(Nc2c3ccc(Cl)cc3nc3ccc(OC)cc23)cc(CN(CC)CC)c1O', 'pIC50', 3.79),
  ('Cc1c2ccncc2c(C)c2c1[nH]c1cc(F)ccc12', 'pIC50', 3.99),
  ('COc1cc(NCCCNc2c3ccc(Cl)cc3nc3ccc(OC)cc23)c2ncccc2c1', 'pIC50', 4.05);
